src = patent US20250161299A1

Assay protocol: Phase I trial of oral PCLX-001: plasma pharmacokinetics, noncompartmental analysis (Phoenix WinNonlin 8.3)
Format: in vivo, human
Setup conditions: human, plasma, oral, 140 mg, Table 4; not on Pantoprazole; 140 mg; N 1; Day 1; read-out: Tmax
Test readout: Tmax (min)

In [3]: df
Out[3]:
                              sample_smiles  result
0  Cc1c(NS(=O)(=O)c2c(Cl)cc(-c3ccnc(N4CCNCC4)c3)cc2Cl)c(CC(C)C)nn1C      30

* * *

Assay protocol: Phase I trial of oral PCLX-001: plasma pharmacokinetics, noncompartmental analysis (Phoenix WinNonlin 8.3)
Type: in vivo, human
Setup conditions: human, plasma, po, 100 mg, Table 9; Patient 115-002-011; Day 15; 100 mg QD oral; Pantoprazole No
Test readout: Cmax (ng/mL)

                              sample_smiles  test_readout    uom  result
0  Cc1c(NS(=O)(=O)c2c(Cl)cc(-c3ccnc(N4CCNCC4)c3)cc2Cl)c(CC(C)C)nn1C          Cmax  ng/mL    1160

* * *

Assay protocol: Phase I trial of oral PCLX-001: plasma pharmacokinetics, noncompartmental analysis (Phoenix WinNonlin 8.3)
Assay type: in vivo, human
Setup conditions: human, plasma, oral, 20 mg, Table 4; Mean; not on Pantoprazole; 20 mg; N 3; Day 15; read-out: AUClast
Test readout: AUC(0-t) (ng·h/mL)

In [3]: df
Out[3]:
                              sample_smiles  test_readout  result
0  Cc1c(NS(=O)(=O)c2c(Cl)cc(-c3ccnc(N4CCNCC4)c3)cc2Cl)c(CC(C)C)nn1C      AUC(0-t)    2220

* * *

Assay protocol: Phase I trial of oral PCLX-001: plasma pharmacokinetics, noncompartmental analysis (Phoenix WinNonlin 8.3)
Format: in vivo, human
Setup conditions: human, plasma, po, 140 mg, Table 10; Patient 115-002-006; Day 15; Dose 140 mg QD oral; Concomitant Pantoprazole No; read-out: AUClast or AUCtau
Test readout: AUC(0-t) (ng·h/mL)

In [3]: df
Out[3]:
                              sample_smiles  test_readout      uom  result
0  Cc1c(NS(=O)(=O)c2c(Cl)cc(-c3ccnc(N4CCNCC4)c3)cc2Cl)c(CC(C)C)nn1C      AUC(0-t)  ng·h/mL   26000

* * *

Assay protocol: Phase I trial of oral PCLX-001: plasma pharmacokinetics, noncompartmental analysis (Phoenix WinNonlin 8.3)
Assay type: in vivo, human
Setup conditions: human, plasma, po, 140 mg, Table 10; Patient 115-024-005; Day 15; Dose 140 mg QD oral; Concomitant Pantoprazole Yes; read-out: AUClast or AUCtau
Test readout: AUC(0-t) (ng·h/mL)

>>> print(df.to_string())
                                   compound      uom  result
0  Cc1c(NS(=O)(=O)c2c(Cl)cc(-c3ccnc(N4CCNCC4)c3)cc2Cl)c(CC(C)C)nn1C [PCLX-001]  ng·h/mL    4320

* * *

Assay protocol: Phase I trial of oral PCLX-001: plasma pharmacokinetics, noncompartmental analysis (Phoenix WinNonlin 8.3)
Assay type: in vivo, human
Setup conditions: human, plasma, oral, 140 mg, Table 4; not on Pantoprazole; 140 mg; N 1; Day 15; read-out: t½ (converted)
Test readout: half-life (h)

>>> df
                              sample_smiles  result
0  Cc1c(NS(=O)(=O)c2c(Cl)cc(-c3ccnc(N4CCNCC4)c3)cc2Cl)c(CC(C)C)nn1C    13.8

* * *

Assay protocol: Phase I trial of oral PCLX-001: plasma pharmacokinetics, noncompartmental analysis (Phoenix WinNonlin 8.3)
Format: in vivo, human
Setup conditions: human, plasma, oral, 40 mg, Table 4; not on Pantoprazole; 40 mg; N 1; Day 15
Test readout: Cmax (ng/mL)

                              sample_smiles  test_readout    uom  result
0  Cc1c(NS(=O)(=O)c2c(Cl)cc(-c3ccnc(N4CCNCC4)c3)cc2Cl)c(CC(C)C)nn1C          Cmax  ng/mL    1480

* * *

Assay protocol: Phase I trial of oral PCLX-001: plasma pharmacokinetics, noncompartmental analysis (Phoenix WinNonlin 8.3)
Type: in vivo, human
Setup conditions: human, plasma, po, 100 mg, Table 9; Patient 115-002-009; Day 1; 100 mg QD oral; Pantoprazole No; read-out: AUClast or AUCtau
Test readout: AUC(0-t)

                              sample_smiles         result
0  Cc1c(NS(=O)(=O)c2c(Cl)cc(-c3ccnc(N4CCNCC4)c3)cc2Cl)c(CC(C)C)nn1C  14800 ng·h/mL

* * *

Assay protocol: Phase I trial of oral PCLX-001: plasma pharmacokinetics, noncompartmental analysis (Phoenix WinNonlin 8.3)
Assay type: in vivo, human
Setup conditions: human, plasma, po, 140 mg, Table 10; Patient 115-024-005; Day 15; Dose 140 mg QD oral; Concomitant Pantoprazole Yes; read-out: Tmax
Test readout: Tmax (h)

In [3]: df
Out[3]:
                                   compound  uom  result
0  Cc1c(NS(=O)(=O)c2c(Cl)cc(-c3ccnc(N4CCNCC4)c3)cc2Cl)c(CC(C)C)nn1C [PCLX-001]    h       2

* * *

Assay protocol: Phase I trial of oral PCLX-001: plasma pharmacokinetics, noncompartmental analysis (Phoenix WinNonlin 8.3)
Type: in vivo, human
Setup conditions: human, plasma, oral, 40 mg, Table 4; not on Pantoprazole; 40 mg; N 1; Day 1
Test readout: Cmax (ng/mL)

>>> print(df.to_string())
                              sample_smiles  result
0  Cc1c(NS(=O)(=O)c2c(Cl)cc(-c3ccnc(N4CCNCC4)c3)cc2Cl)c(CC(C)C)nn1C    1670

* * *

Assay protocol: Phase I trial of oral PCLX-001: plasma pharmacokinetics, noncompartmental analysis (Phoenix WinNonlin 8.3)
Assay type: in vivo, human
Setup conditions: human, plasma, oral, 140 mg, Table 5; Mean (CV); on Pantoprazole; 140 mg; N 2; Day 15; read-out: AUClast
Test readout: AUC(0-t) (ng·h/mL)

In [3]: df
Out[3]:
                              sample_smiles  test_readout  result
0  Cc1c(NS(=O)(=O)c2c(Cl)cc(-c3ccnc(N4CCNCC4)c3)cc2Cl)c(CC(C)C)nn1C      AUC(0-t)    7680

* * *

Assay protocol: Phase I trial of oral PCLX-001: plasma pharmacokinetics, noncompartmental analysis (Phoenix WinNonlin 8.3)
Type: in vivo, human
Setup conditions: human, plasma, po, 140 mg, Table 10; Patient 115-024-005; Day 1; Dose 140 mg QD oral; Concomitant Pantoprazole Yes; read-out: Half-life (converted)
Test readout: half-life (h)

>>> print(df.to_string())
                                   compound  test_readout  uom  result
0  Cc1c(NS(=O)(=O)c2c(Cl)cc(-c3ccnc(N4CCNCC4)c3)cc2Cl)c(CC(C)C)nn1C [PCLX-001]     half-life    h    7.56

* * *

Assay protocol: Phase I trial of oral PCLX-001: plasma pharmacokinetics, noncompartmental analysis (Phoenix WinNonlin 8.3)
Type: in vivo, human
Setup conditions: human, plasma, po, 20 mg, Table 6; Patient 115-002-001; Day 15; 20 mg QD oral; Pantoprazole No; read-out: Half-life (converted)
Test readout: half-life (h)

>>> print(df.to_string())
                                   compound  test_readout  result
0  Cc1c(NS(=O)(=O)c2c(Cl)cc(-c3ccnc(N4CCNCC4)c3)cc2Cl)c(CC(C)C)nn1C [PCLX-001]     half-life    10.9

* * *

Assay protocol: Phase I trial of oral PCLX-001: plasma pharmacokinetics, noncompartmental analysis (Phoenix WinNonlin 8.3)
Format: in vivo, human
Setup conditions: human, plasma, po, 140 mg, Table 10; Patient 115-024-005; Day 15; Dose 140 mg QD oral; Concomitant Pantoprazole Yes
Test readout: Cmax (ng/mL)

                                   compound  result
0  Cc1c(NS(=O)(=O)c2c(Cl)cc(-c3ccnc(N4CCNCC4)c3)cc2Cl)c(CC(C)C)nn1C [PCLX-001]     295

* * *

Assay protocol: in vivo
Setup conditions: rat, plasma, po
Test readout: half-life (h)

In [3]: df
Out[3]:
                              sample_smiles  uom  result
0  Cc1c(NS(=O)(=O)c2c(Cl)cc(-c3ccnc(N4CCNCC4)c3)cc2Cl)c(CC(C)C)nn1C    h       1
